Quick reference: pKi of the listed items.
molecular target: Apoptosis regulator Bcl-2 (Homo sapiens, UniProt P10415); assay: Displacement of Flu-Bak peptide from recombinant antiapoptotic Bcl2 protein by fluorescence polarization assay
Sequence (P10415 whole entry): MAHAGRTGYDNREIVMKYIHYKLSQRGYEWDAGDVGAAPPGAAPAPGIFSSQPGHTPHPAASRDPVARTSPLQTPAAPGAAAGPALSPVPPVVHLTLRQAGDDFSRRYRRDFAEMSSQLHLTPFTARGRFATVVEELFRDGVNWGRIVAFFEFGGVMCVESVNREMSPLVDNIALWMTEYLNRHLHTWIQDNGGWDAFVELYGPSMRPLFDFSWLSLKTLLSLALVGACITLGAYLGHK
pKi: −log10 of the molar value.

{"MOLECULE": "C=CCOC(=O)[C@H](C)N1C(=O)/C(=C/c2ccc(Br)cc2)SC1=S", "READING QUALIFIER": "=", "pKi": 3.72}
{"MOLECULE": "O=C(O)[C@H](Cc1ccccc1)N1C(=O)/C(=C/c2ccc(Br)cc2)SC1=S", "READING QUALIFIER": "=", "pKi": 4.85}
{"MOLECULE": "C=CCOC(=O)[C@H](Cc1ccccc1)N1C(=O)/C(=C/c2ccc(Br)cc2)SC1=S", "READING QUALIFIER": "<", "pKi": 3.00}
{"MOLECULE": "CC(C)C[C@@H](C(=O)O)N1C(=O)C(=C(c2ccccc2)c2ccccc2)SC1=S", "READING QUALIFIER": "=", "pKi": 4.24}
{"MOLECULE": "CCC/C(=C1/SC(=S)N([C@@H](Cc2ccccc2)C(=O)O)C1=O)c1ccccc1", "READING QUALIFIER": "=", "pKi": 4.92}
{"MOLECULE": "O=C(O)CC[C@@H](C(=O)O)N1C(=O)/C(=C/c2ccc(Br)cc2)SC1=S", "READING QUALIFIER": "=", "pKi": 3.49}
{"MOLECULE": "CCCC[C@H]1C(=O)O[C@H](C)[C@H](NC(=O)c2cccc(NC=O)c2O)C(=O)O[C@@H](C)[C@@H]1OC(=O)CC(C)C [ANTIMYCIN A3]", "READING QUALIFIER": "=", "pKi": 3.91}
{"MOLECULE": "CCC/C(=C1/SC(=S)N([C@@H](CC(C)C)C(=O)O)C1=O)c1ccccc1", "READING QUALIFIER": "=", "pKi": 4.87}
{"MOLECULE": "CC(C)C[C@@H](C(=O)O)N1C(=O)/C(=C/c2ccc(Br)cc2)SC1=S", "READING QUALIFIER": "=", "pKi": 5.13}
{"MOLECULE": "C/C(=C1/SC(=S)N([C@@H](CC(C)C)C(=O)O)C1=O)c1ccccc1", "READING QUALIFIER": "=", "pKi": 4.67}
{"MOLECULE": "C[C@@H](C(=O)O)N1C(=O)/C(=C/c2ccc(Br)cc2)SC1=S", "READING QUALIFIER": "=", "pKi": 3.94}
{"MOLECULE": "C=CCOC(=O)[C@H](Cc1ccccc1)N1C(=O)C(=C(c2ccccc2)c2ccccc2)SC1=S", "READING QUALIFIER": "=", "pKi": 3.59}
{"MOLECULE": "COc1ccc2c(c[n+](C)c3c4cc5c(cc4ccc23)OCO5)c1OC [CHELERYTHRINE CHLORIDE]", "READING QUALIFIER": "=", "pKi": 3.77}

* * *

species: Homo sapiens; assay: Selectivity for recombinant Bcl2 protein over recombinant Bcl-w protein
Quick reference: Ratio Ki of the listed items.
PROPERTY: Ratio Ki

{"COMPOUND": "C[C@@H](C(=O)O)N1C(=O)/C(=C/c2ccc(Br)cc2)SC1=S", "PROPERTY": "Ratio Ki", "VALUE OBSERVED": 2.11}
{"COMPOUND": "CCC/C(=C1/SC(=S)N([C@@H](CC(C)C)C(=O)O)C1=O)c1ccccc1", "PROPERTY": "Ratio Ki", "VALUE OBSERVED": 1.79}
{"COMPOUND": "CC(C)C(C(=O)O)N1C(=O)/C(=C\\c2ccc(Br)cc2)SC1=S (centres undefined)", "PROPERTY": "Ratio Ki", "VALUE OBSERVED": 2.85}
{"COMPOUND": "CSCC[C@@H](C(=O)O)N1C(=O)/C(=C/c2ccc(Br)cc2)SC1=S", "PROPERTY": "Ratio Ki", "VALUE OBSERVED": 1.26}
{"COMPOUND": "CC(C)C[C@@H](C(=O)O)N1C(=O)C(=C(c2ccccc2)c2ccccc2)SC1=S", "PROPERTY": "Ratio Ki", "VALUE OBSERVED": 1.07}
{"COMPOUND": "C[C@@H](C(=O)N1CCOCC1)N1C(=O)/C(=C/c2ccc(Br)cc2)SC1=S", "PROPERTY": "Ratio Ki", "VALUE OBSERVED": 2.01}
{"COMPOUND": "C/C(=C1/SC(=S)N([C@@H](CC(C)C)C(=O)O)C1=O)c1ccccc1", "PROPERTY": "Ratio Ki", "VALUE OBSERVED": 2.74}
{"COMPOUND": "CC(C)C[C@@H](C(=O)O)N1C(=O)/C(=C(\\c2ccccc2)c2ccc(-c3ccccc3)cc2)SC1=S", "PROPERTY": "Ratio Ki", "VALUE OBSERVED": 3.58}
{"COMPOUND": "O=C(O)CC[C@@H](C(=O)O)N1C(=O)/C(=C/c2ccc(Br)cc2)SC1=S", "PROPERTY": "Ratio Ki", "VALUE OBSERVED": 1.91}

* * *

assay: Displacement of Flu-Bak peptide from recombinant antiapoptotic Bcl-XL protein by fluorescence polarization assay; parameters: species or system Homo sapiens
Quick reference: Ki of the listed items.

{"COMPOUND": "Cc1cc2c(C(C)C)c(O)c(O)c(C=O)c2c(O)c1-c1c(C)cc2c(C(C)C)c(O)c(O)c(C=O)c2c1O", "Ki / µM": 24.7}
{"COMPOUND": "O=C(O)CC[C@@H](C(=O)O)N1C(=O)/C(=C/c2ccc(Br)cc2)SC1=S", "Ki / µM": 848}
{"COMPOUND": "CC(C)C[C@@H](C(=O)O)N1C(=O)C(=C(c2ccccc2)c2ccccc2)SC1=S", "Ki / µM": 68.8}
{"COMPOUND": "C=CCOC(=O)[C@H](Cc1ccccc1)N1C(=O)/C(=C/c2ccc(Br)cc2)SC1=S", "Ki / µM": 244}
{"COMPOUND": "C[C@@H](C(=O)N1CCOCC1)N1C(=O)/C(=C/c2ccc(Br)cc2)SC1=S", "Ki / µM": 228}
{"COMPOUND": "COc1ccc2c(c[n+](C)c3c4cc5c(cc4ccc23)OCO5)c1OC [CHELERYTHRINE CHLORIDE]", "Ki / µM": 96}
{"COMPOUND": "CCC/C(=C1/SC(=S)N([C@@H](CC(C)C)C(=O)O)C1=O)c1ccccc1", "Ki / µM": 41.3}
{"COMPOUND": "CC(C)C[C@@H](C(=O)O)N1C(=O)/C(=C(\\c2ccccc2)c2ccc(-c3ccccc3)cc2)SC1=S", "Ki / µM": 8.7}
{"COMPOUND": "C=CCOC(=O)[C@H](Cc1ccccc1)N1C(=O)C(=C(c2ccccc2)c2ccccc2)SC1=S", "Ki / µM": 176}

* * *

Quick reference: Ki of the listed items.
test: Displacement of Flu-Bak peptide from recombinant antiapoptotic Bcl-XL protein by fluorescence polarization assay; set-up: species or system Homo sapiens

{"COMPOUND": "C=CCOC(=O)[C@H](C)N1C(=O)/C(=C/c2ccc(Br)cc2)SC1=S", "Ki / µM": 268}
{"COMPOUND": "O=C(O)[C@H](Cc1c[nH]c2ccccc12)N1C(=O)/C(=C/c2ccc(Br)cc2)SC1=S", "Ki / µM": 32.8}
{"COMPOUND": "C[C@@H](C(=O)O)N1C(=O)/C(=C/c2ccc(Br)cc2)SC1=S", "Ki / µM": 374}
{"COMPOUND": "CCC/C(=C1/SC(=S)N([C@@H](Cc2ccccc2)C(=O)O)C1=O)c1ccccc1", "Ki / µM": 27.9}
{"COMPOUND": "C/C(=C1/SC(=S)N([C@@H](CC(C)C)C(=O)O)C1=O)c1ccccc1", "Ki / µM": 128}
{"COMPOUND": "CC(C)C[C@@H](C(=O)O)N1C(=O)/C(=C/c2ccc(Br)cc2)SC1=S", "Ki / µM": 2.99}
{"COMPOUND": "O=C(O)[C@H](Cc1ccccc1)N1C(=O)/C(=C/c2ccc(Br)cc2)SC1=S", "Ki / µM": 5.35}
{"COMPOUND": "CC(C)C(C(=O)O)N1C(=O)/C(=C\\c2ccc(Br)cc2)SC1=S (centres undefined)", "Ki / µM": 133}
{"COMPOUND": "CSCC[C@@H](C(=O)O)N1C(=O)/C(=C/c2ccc(Br)cc2)SC1=S", "Ki / µM": 134}
